molecular target: PDE1B (Homo sapiens); construct: purchased Reaction Biology Corporation, Malvern, Pa; experiment: Phosphodiesterase enzyme screening assay, PDE1B; assay type: biochemical; conditions: ratio of IC50 values PDE1B / PDE9A2; value greater than 1 = greater selectivity for PDE9A2
Sequence (Q01064 whole entry): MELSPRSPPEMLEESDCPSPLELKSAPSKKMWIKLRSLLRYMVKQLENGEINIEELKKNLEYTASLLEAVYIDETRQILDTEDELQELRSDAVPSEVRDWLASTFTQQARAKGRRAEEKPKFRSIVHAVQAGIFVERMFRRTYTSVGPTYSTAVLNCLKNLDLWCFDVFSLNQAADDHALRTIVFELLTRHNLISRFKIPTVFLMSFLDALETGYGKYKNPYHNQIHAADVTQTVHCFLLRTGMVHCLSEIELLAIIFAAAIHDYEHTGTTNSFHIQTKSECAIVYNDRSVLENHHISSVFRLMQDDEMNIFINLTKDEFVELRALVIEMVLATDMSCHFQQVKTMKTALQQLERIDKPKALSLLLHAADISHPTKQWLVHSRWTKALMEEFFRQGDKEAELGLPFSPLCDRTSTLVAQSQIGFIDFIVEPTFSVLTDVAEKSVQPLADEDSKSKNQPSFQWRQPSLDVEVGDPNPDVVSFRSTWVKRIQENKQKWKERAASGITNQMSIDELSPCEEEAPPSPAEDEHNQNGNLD
measurement type: PDE1B selectivity (versus PDE9A2)
Answers are plain numbers.

Below: 5 compounds and their reported PDE1B selectivity (versus PDE9A2).
CC1CN(Cc2cccs2)CC1c1nn2c(C3CCOCC3)ncc2c(=O)[nH]1 (single isomer, unassigned; (+)) ... 140
COc1ncc(CN2CC(C)C(c3nn4c(C5CCOCC5)ncc4c(=O)[nH]3)C2)cn1 (single isomer, unassigned; (+)) ... 3650
CC1CN(Cc2ccc(Cl)c(C(F)(F)F)c2)CC1c1nn2c(C3CCOCC3)ncc2c(=O)[nH]1 (single isomer, unassigned; (+)) ... 406
CC1CN(Cc2c(F)cccc2Cl)CC1c1nn2c(C3CCOCC3)ncc2c(=O)[nH]1 (single isomer, unassigned; (+)) ... 252
CC1CN(c2nccc(C(F)(F)F)n2)CC1c1nn2c(C3CCOCC3)ncc2c(=O)[nH]1 (single isomer, unassigned; (+)) ... 1

Here is another compound to look at.
The compound listed as Cc1cc(CN2CC(C)C(c3nn4c(C5CCOCC5)ncc4c(=O)[nH]3)C2)ccn1 (single isomer, unassigned; (+)) has a reported PDE1B selectivity (versus PDE9A2) of 421

###

target: PDE1A (Homo sapiens); construct: purchased Reaction Biology Corporation, Malvern, Pa; assay: Phosphodiesterase enzyme screening assay, PDE1A; assay type: biochemical; conditions: Table 1; ratio of IC50 values; value greater than 1 indicates greater selectivity for PDE9A2
For each record, write down the corresponding PDE1A selectivity (versus PDE9A2).
One number for each entry.

C[C@@H]1CN(Cc2cn3ncccc3n2)C[C@H]1c1nn2c(C3CCOCC3)ncc2c(=O)[nH]1 (relative stereo) ... 1005
CC1CN(Cc2ccc(Cl)cc2Cl)CC1c1nn2c(C3CCOCC3)ncc2c(=O)[nH]1 (single isomer, unassigned; (+)) ... 598
CC1CN(Cc2ccccc2N2CCCC2)CC1c1nn2c(C3CCOCC3)ncc2c(=O)[nH]1 (single isomer, unassigned; (+)) ... 184

List PDE1A selectivity (versus PDE9A2) for every entry below, keeping the order given.
1. CC1CN(Cc2ncccn2)CC1c1nn2c(C3CCC(F)(F)CC3)ncc2c(=O)[nH]1 (single isomer, unassigned; (+))
2. CC1CN(Cc2cn3ccccc3n2)CC1c1nn2c(C3CCOCC3)ncc2c(=O)[nH]1 (single isomer, unassigned; (+))
3. CC1CN(Cc2cccc(F)c2)CC1c1nn2c(C3CCOCC3)ncc2c(=O)[nH]1 (single isomer, unassigned; (-))
4. CC1CN(C(=O)c2cccnc2)CC1c1nn2c(C3CCOCC3)ncc2c(=O)[nH]1 (single isomer, unassigned; (-))

*A*
1. 165
2. 754
3. 1110
4. 36

###

target: PDE1A (Homo sapiens); construct: purchased Reaction Biology Corporation, Malvern, Pa; experiment: Phosphodiesterase enzyme screening assay, PDE1A; format: biochemical; conditions: Table 1; ratio of IC50 values; value greater than 1 indicates greater selectivity for PDE9A2
For each record, write down the corresponding PDE1A selectivity (versus PDE9A2).
Answers are plain numbers.

Below: 2 molecules and their reported PDE1A selectivity (versus PDE9A2).
CC1CN(Cc2ccc3nccn3n2)CC1c1nn2c(C3CCOCC3)ncc2c(=O)[nH]1 (single isomer, unassigned; (+)) ... 232
CC1CN(Cc2ccccc2C#N)CC1c1nn2c(C3CCOCC3)ncc2c(=O)[nH]1 (single isomer, unassigned; (+)) ... 241

The molecule listed as CC1CN(C(=O)c2ccccc2)CC1c1nn2c(C3CCOCC3)ncc2c(=O)[nH]1 (single isomer, unassigned; (-)) [(−)-2-((3,4-trans)-1-benzoyl-4-methylpyrrolidin-3-yl)-7-(tet] has a reported PDE1A selectivity (versus PDE9A2) of 26

###

Biological target: PDE1A (Homo sapiens)
Construct: purchased Reaction Biology Corporation, Malvern, Pa
Test: Phosphodiesterase enzyme screening assay, PDE1A
Type: biochemical
Details: ratio of IC50 values, PDE1A versus PDE9A2; value greater than 1 indicates greater selectivity for PDE9A2
From the text: Compounds of the invention were screened against PDE1A, PDE1B, PDE2A, PDE3A, PDE3B, PDE4A1A, PDE4B1, PDE4D3, PDE5A1, PDE6C, PDE7A, PDE8A1, PDE9A2, PDE10A2 AND PDE11A isoforms of the phosphodiesterase enzyme to determine activity and overall selectivity through comparative analysis. […] Where 8-methoxy-IBMX and Zaprinast were used as reference inhibitors. […]
For each record, write down the corresponding PDE1A selectivity (versus PDE9A2).
One number for each entry.

Below: 6 compounds and their reported PDE1A selectivity (versus PDE9A2).
Cc1cc(F)c(F)cc1-c1ncc2c(=O)[nH]c(C3CN(Cc4ccc(F)cc4)CC3C)nn12 (single isomer, unassigned; (+)) ... 232
Cc1ccncc1-c1ncc2c(=O)[nH]c(C3CN(Cc4cn5ccccc5n4)CC3C)nn12 (single isomer, unassigned; (+)) ... 128
Cc1ccccc1-c1ncc2c(=O)[nH]c(C3CN(Cc4ccccc4)CC3C)nn12 (single isomer, unassigned; (+)) ... 461
Cc1ccccc1-c1ncc2c(=O)[nH]c(C3CN(Cc4ccc(F)cc4)CC3C)nn12 (single isomer, unassigned; (+)) ... 963
CC1CN(Cc2cnccn2)CC1c1nn2c(-c3ccc(F)cc3)ncc2c(=O)[nH]1 (single isomer, unassigned; (+)) ... 9
CC1CN(Cc2ccc(F)cc2)CC1c1nn2c(C3CCCC3)ncc2c(=O)[nH]1 (single isomer, unassigned; (+)) ... 41

Here is another compound to look at.
The compound listed as CC1CN(Cc2ccccn2)CC1c1nn2c(-c3cccc(F)c3)ncc2c(=O)[nH]1 (single isomer, unassigned; (+)) has a reported PDE1A selectivity (versus PDE9A2) of 190

###

target: PDE1A (Homo sapiens, UniProt P54750); construct: purchased Reaction Biology Corporation, Malvern, Pa; experiment: Phosphodiesterase enzyme screening assay, PDE1A; type: biochemical; details: Table 1; ratio of IC50 values; value greater than 1 indicates greater selectivity for PDE9A2
Sequence (P54750 whole entry): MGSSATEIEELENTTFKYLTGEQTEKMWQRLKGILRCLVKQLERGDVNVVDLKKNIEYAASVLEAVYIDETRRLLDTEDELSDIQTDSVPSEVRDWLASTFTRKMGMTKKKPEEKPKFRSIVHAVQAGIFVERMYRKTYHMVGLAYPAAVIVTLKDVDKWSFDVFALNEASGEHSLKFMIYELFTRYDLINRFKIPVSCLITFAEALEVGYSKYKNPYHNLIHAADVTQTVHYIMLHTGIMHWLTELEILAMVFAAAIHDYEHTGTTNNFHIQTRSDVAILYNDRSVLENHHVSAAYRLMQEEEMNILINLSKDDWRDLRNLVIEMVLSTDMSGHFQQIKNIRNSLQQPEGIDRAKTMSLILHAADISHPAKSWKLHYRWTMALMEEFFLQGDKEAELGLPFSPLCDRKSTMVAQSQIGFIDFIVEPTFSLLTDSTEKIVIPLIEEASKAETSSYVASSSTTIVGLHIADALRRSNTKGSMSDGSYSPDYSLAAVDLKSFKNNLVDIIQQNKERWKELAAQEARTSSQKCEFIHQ
measurement type: PDE1A selectivity (versus PDE9A2)
One number for each entry.

Below: 5 compounds and their reported PDE1A selectivity (versus PDE9A2).
CC1CN(C(=O)c2ccc(F)cc2)CC1c1nn2c(C3CCOCC3)ncc2c(=O)[nH]1 (single isomer, unassigned; (-)) [(−)-2-((3,4-trans)-1-(4-fluorobenzoyl)-4-methylpyrrolidin-3-] ... 12
CC1CN(Cc2ccccc2Br)CC1c1nn2c(C3CCOCC3)ncc2c(=O)[nH]1 (single isomer, unassigned; (+)) ... 104
COc1ccccc1CN1CC(C)C(c2nn3c(C4CCOCC4)ncc3c(=O)[nH]2)C1 (single isomer, unassigned; (+)) ... 337
CC1CN(C(=O)c2ccc3ccccc3n2)CC1c1nn2c(C3CCOCC3)ncc2c(=O)[nH]1 (single isomer, unassigned; (-)) ... 25
CC1CN(c2ncccn2)CC1c1nn2c(C3CCOCC3)ncc2c(=O)[nH]1 (single isomer, unassigned; (+)) ... 1

List PDE1A selectivity (versus PDE9A2) for every entry below, keeping the order given.
1. CC1CN(Cc2nc3ccccc3[nH]2)CC1c1nn2c(C3CCOCC3)ncc2c(=O)[nH]1 (single isomer, unassigned; (-))
2. CC1CN(Cc2ccccc2F)CC1c1nn2c(C3CCOCC3)ncc2c(=O)[nH]1 (single isomer, unassigned; (+))
3. COc1cccc(CN2CC(C)C(c3nn4c(C5CCOCC5)ncc4c(=O)[nH]3)C2)c1 (single isomer, unassigned; (+))
4. CC1CN(Cc2ccc3ccccc3n2)CC1c1nn2c(C3CCOCC3)ncc2c(=O)[nH]1 (single isomer, unassigned; (-)) [(−)-2-((3,4-trans)-4-methyl-1-(quinolin-2-ylmethyl)pyrrolidi]

*A*
1. 433
2. 300
3. 1347
4. 56

List PDE1A selectivity (versus PDE9A2) for every entry below, keeping the order given.
1. CC1CN(C(=O)c2cccc(F)c2)CC1c1nn2c(C3CCOCC3)ncc2c(=O)[nH]1 (single isomer, unassigned; (-))
2. CC1CN(Cc2cnc3ccccc3n2)CC1c1nn2c(C3CCOCC3)ncc2c(=O)[nH]1 (single isomer, unassigned; (+))
3. CC1CN(Cc2ccc(C#N)cc2)CC1c1nn2c(C3CCOCC3)ncc2c(=O)[nH]1 (single isomer, unassigned; (-))
4. CC1CN(CCc2ccccc2)CC1c1nn2c(C3CCOCC3)ncc2c(=O)[nH]1 (single isomer, unassigned; (+))

*A*
[26, 453, 640, 28]

###

molecular target: PDE9A2 (Homo sapiens); construct: purchased Reaction Biology Corporation, Malvern, Pa; assay: Phosphodiesterase enzyme screening assay, PDE9A2; type: biochemical; conditions: Table 2; 10 concentrations; 4.0 μM cGMP substrate; 1 hour at R.T.; read-out: Band (PDE9A2 IC50)
Sequence (O76083 1-533 isoform O76083-2): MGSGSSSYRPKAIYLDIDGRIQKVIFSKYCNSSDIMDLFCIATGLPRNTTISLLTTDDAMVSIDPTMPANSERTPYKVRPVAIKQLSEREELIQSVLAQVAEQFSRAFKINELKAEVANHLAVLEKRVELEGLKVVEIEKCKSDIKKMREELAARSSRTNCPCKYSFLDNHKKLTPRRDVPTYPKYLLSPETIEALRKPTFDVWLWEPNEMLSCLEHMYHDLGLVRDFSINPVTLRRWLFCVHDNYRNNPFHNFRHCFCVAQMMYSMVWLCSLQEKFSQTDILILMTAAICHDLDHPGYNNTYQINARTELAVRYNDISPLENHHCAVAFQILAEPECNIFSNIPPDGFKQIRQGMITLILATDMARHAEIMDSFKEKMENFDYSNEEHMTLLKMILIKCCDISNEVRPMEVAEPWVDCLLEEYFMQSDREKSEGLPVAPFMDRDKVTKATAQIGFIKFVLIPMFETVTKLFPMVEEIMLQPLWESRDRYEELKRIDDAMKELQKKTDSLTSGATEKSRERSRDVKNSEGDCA
pIC50: −log10 of the molar value.
measurement type: pIC50

Below: 4 molecules and their reported pIC50.
CC1CN(Cc2ncc(C#N)cn2)CC1c1nn2c(C3CCOCC3)ncc2c(=O)[nH]1 (single isomer, unassigned; (+)) ... > 6.00
CC1CN(Cc2ncc(F)c(N3CCOCC3)n2)CC1c1nn2c(C3CCOCC3)ncc2c(=O)[nH]1 (single isomer, unassigned; (+)) ... > 6.00
CC1CN(C(=O)Cc2cncnc2)CC1c1nn2c(C3CCOCC3)ncc2c(=O)[nH]1 (single isomer, unassigned; (+)) ... 5.00 to 6.00
CC1CN(Cc2ncc(C(F)(F)F)cn2)CC1c1nn2c(C3CCOCC3)ncc2c(=O)[nH]1 (single isomer, unassigned; (+)) ... > 6.00

Here is another molecule to look at.
The molecule listed as Cc1cc(C)nc(CN2CC(C)C(c3nn4c(C5CCOCC5)ncc4c(=O)[nH]3)C2)n1 (single isomer, unassigned; (+)) has a reported pIC50 of > 6.00
